System Tested: GSK3β (h) (Homo sapiens, UniProt P49841)
Sequence (P49841 whole entry): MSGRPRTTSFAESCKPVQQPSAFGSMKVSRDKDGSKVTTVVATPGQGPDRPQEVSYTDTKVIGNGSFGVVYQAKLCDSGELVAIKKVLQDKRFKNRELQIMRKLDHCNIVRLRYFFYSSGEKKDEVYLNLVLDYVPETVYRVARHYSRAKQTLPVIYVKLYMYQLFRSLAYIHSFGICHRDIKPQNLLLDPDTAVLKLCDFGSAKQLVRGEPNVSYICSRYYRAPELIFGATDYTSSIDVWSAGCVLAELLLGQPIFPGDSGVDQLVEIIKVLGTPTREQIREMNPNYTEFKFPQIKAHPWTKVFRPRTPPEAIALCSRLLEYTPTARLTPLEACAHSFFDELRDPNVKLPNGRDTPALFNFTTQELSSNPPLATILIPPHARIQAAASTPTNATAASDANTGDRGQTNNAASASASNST
Assay Protocol: GSK-3β human kinase inhibition, SPA
Assay type: biochemical
Measurement Context: read-out: GSK3b pIC50 (converted)
Experimental Endpoint: IC50 (µM)
Field: numeric (µM). Do not append units.

A selection of reference data follows.
> print(dat)
                         chemical.structure                             system.tested  numeric.readout
1  COc1cc2cc(c1)Nc1nccc(n1)-c1ccc(OC)c(c1)CN(C)CCCNC(=O)CN1CCN(CC1)C2  GSK3β (h) (Homo sapiens, UniProt P49841)             7.41
2  CC(C)Nc1cc2cc(c1)Nc1nccc(n1)-c1ccc(cc1)CN(C)CCCNC(=O)CN1CCN(CC1)C2  GSK3β (h) (Homo sapiens, UniProt P49841)             4.37
3  O=C1NCc2cccc(c2)-c2ccnc(n2)Nc2cccc(c2)CN2CCC[C@@H]12  GSK3β (h) (Homo sapiens, UniProt P49841)            0.126
4  CN(C)CCNC(=O)c1cc2cc(c1)Nc1nccc(n1)-c1cccc(c1)CNC(=O)[C@@H]1CCCN1C2  GSK3β (h) (Homo sapiens, UniProt P49841)            0.363
5  O=C1NCc2cc(ccc2N2CCOCC2)Nc2nccc(n2)-c2cccc(c2)CCCN2CCC[C@@H]12  GSK3β (h) (Homo sapiens, UniProt P49841)            0.117

Prompt: Find the recorded IC50 belonging to `COc1ccc2cc1CN(C)CCNC(=O)[C@H](CO)NCc1cc(Br)cc(c1)Nc1nccc-2n1` and report it.
Response: 6.03

Prompt: Param item = `CN1CCNC(=O)CN2CCN(CC2)Cc2cc(Br)cc(c2)Nc2nccc(n2)-c2ccc(cc2)C1` ; retrieve measured IC50.
Response: 0.49

Prompt: # lookup: IC50 of `O=C1CN2CCN(CC2)Cc2cccc(c2)Nc2nccc(n2)-c2ccnc(c2)CCCN1`
Response: 0.0166

Prompt: Field request: IC50 | item: `CN1CCNC(=O)[C@@H]2CCCN2Cc2cccc(c2)Nc2nccc(n2)-c2ccc(cc2)C1`
Response: 5.5

Prompt: Which IC50 reading was recorded for the compound `O=C1NCc2cccc(c2)-c2ccnc(n2)Nc2cccc(c2)CN[C@H]1Cc1ccccc1` ?
Response: 0.0275

====

System Tested: GSK3β (h) (Homo sapiens, UniProt P49841)
Assay Protocol: GSK-3β human kinase inhibition, SPA
Assay type: biochemical
Measurement Context: read-out: GSK3b pIC50 (converted)
Experimental Endpoint: IC50 (nM)
Give the value in nM but do not write nM after it.

> print(dat)
                         chemical.structure  numeric.readout
1  O=C1NCc2cccc(c2)-c2ccnc(n2)Nc2cccc(c2)CN2CCC1CC2              457
2  O=C1NCCCOc2ccc(cc2)-c2ccnc(n2)Nc2ccc(N3CCOCC3)c(c2)CN2CCC[C@@H]12              372
3  O=C1NCCCOc2cccc(c2)-c2ccnc(n2)Nc2ccc(N3CCOCC3)c(c2)CN[C@H]1Cc1ccccc1             2690

Prompt: Data request, read-out IC50, for `CN1CCNC(=O)C2CCN(CC2)Cc2cc(cc(N3CCOCC3)c2)Nc2nccc(n2)-c2ccc(cc2)C1`
Response: 5890
